experiment: Clearance in ICR mouse at 5 mg/kg, iv and […] mg/kg, po by LC-MS/MS analysis; format: ADME, organism-based; conditions: in vivo
measure: clearance
Quote the value and follow it with the unit of measurement.

Need clearance of O=C(O)c1ccc2c(c1)nc(Nc1cccc(Cl)c1)c1ccncc12 [SILMITASERTIB] , thanks.
2.5 L/h/kg

----------
tested on: MDA-MB-231; assay: Antiproliferative activity against human MDA-MB-231 cells after 4 days by alamar blue assay; format: functional, cell-based; settings: MDA-MB-231, 96 h
measure: pIC50
Interpret pIC50 as the negative base-10 log of the concentration measured in mol/L.

Need pIC50 of N#Cc1cccc(Nc2nc3cc(C(=O)O)ccc3c3cnccc23)c1 , thanks.
4.54

Another compound to look at: O=C(O)c1ccc2c(c1)nc(Nc1ccc(F)c(Cl)c1)c1ccncc12
5.21

Another compound to look at: C#Cc1cccc(Nc2nc3cc(C(=O)O)ccc3c3cnccc23)c1
4.93
